experiment: pH measurement of saturated basic salts in water; format: physicochemical; details: excess basic salt suspended in water, 37° C., 7 days
readout-label: pH of saturated solution

I = O=P([O-])([O-])[O-].O=P([O-])([O-])[O-].[Ca+2].[Ca+2].[Ca+2]
II = [Ca+2].[OH-].[OH-]
Query :: Lab log: flag the item ( I or II ) with the smaller pH of saturated solution figure. Which one? Tell me its label.
Result :: I
(I: 7.77, II: 12.4)

* * *

test: pH of saturated basic salt suspension after addition of 1 N HCl; format: physicochemical; conditions: acid added to the saturated suspension with excess salt, 37° C., 3 days
readout-label: pH after addition of 100 μl of 1 N HCl

compound	pH after addition of 100 μl of 1 N HCl
O=C([O-])[O-].[Mg+2]	9.01

I = [OH-].[OH-].[Zn+2]
II = [Mg+2].[OH-].[OH-]
III = O=P([O-])([O-])[O-].O=P([O-])([O-])[O-].[Ca+2].[Ca+2].[Ca+2]
IV = O=P([O-])([O-])[O-].O=P([O-])([O-])[O-].[Zn+2].[Zn+2].[Zn+2]
Query :: Please list the entries, largest pH after addition of 100 μl of 1 N HCl first. A ranking is expressed here by listing the labels in the requested order.
Result :: II, I, III, IV
(II: 8.99, I: 5.86, III: 3.71, IV: 1.53)

* * *

Assay: pH measurement of saturated basic salts in water
Assay type: physicochemical
Details: excess basic salt suspended in water, 37° C., 7 days
Description: The suspension was then incubated at 37° C. for 7 days. The pH of the supernatant was determined with a Corning 430 pH meter (Corning Inc., NY).
readout-label: pH of saturated solution

compound	pH of saturated solution
O=C([O-])[O-].[Mg+2]	9.75
O=C([O-])[O-].[Ca+2]	9.26
[OH-].[OH-].[Zn+2]	8.85
O=P([O-])([O-])[O-].O=P([O-])([O-])[O-].[Zn+2].[Zn+2].[Zn+2]	6.82
O=C([O-])[O-].[Zn+2]	7.34

* * *

Assay: pH of saturated basic salt suspension after addition of 1 N HCl
Assay type: physicochemical
Details: acid added to the saturated suspension with excess salt, 37° C., 3 days
Source text: The difference of the neutralization effect from the salts is also reflected in the different water contents of their PLGA devices.
readout-label: pH after addition of 100 μl of 1 N HCl

I = O=C([O-])[O-].[Zn+2] [ZnCO3]
II = [Ca+2].[OH-].[OH-] [Ca(OH)2]
Query :: In the pair I and II , the larger recorded pH after addition of 100 μl of 1 N HCl belongs to which? Indicate your choice by writing its label.
Result :: II

Values compiled from patent US6743446B2.
